molecular target: VIM-2 (Pseudomonas aeruginosa); test: biochemical; conditions: 50 μM compound, 5 nM MBL, 10 μM nitrocefin, 30 mins; read-out: VIM-2 percentage inhibition
inhibition at 50 µM vs 20%: at or above is Condition met, below is Condition not met.

INSERT INTO assay_data (compound, tested_on, cat) VALUES
  ('CC(=O)c1ccc(O)c(O)c1O', 'VIM-2 (Pseudomonas aeruginosa)', 'Condition met');

# bool: inhibition at 50 µM of `Sc1nccc(-c2cccs2)n1` >= 20% Condition met

Let us now turn to `Cc1cc(C)n(-c2nc3ccccc3c(=O)n2O)n1` Condition not met

====

Biological target: VIM-2 (Pseudomonas aeruginosa, UniProt Q5U7L7)
Test: biochemical
Method: The pET24a-VIM-2 plasmid was transformed into competent BL21 (DE3) E. coli cells. The cells were plated onto an LB-agar plate with kanamycin (25 μg/mL) and incubated overnight at 37° C. […] The sample was loaded onto the column, and proteins were eluted with a linear gradient 0-500 mM NaCl with buffer B. Fractions containing VIM-2, determined by SDS-PAGE, were pooled and concentrated to 2-3 mL in an Amicon ultraconcentrator equipped YM-10 membrane. […]
# pKi listing for each entry below
Schema: pKi number; meaning minus log10 of the concentration expressed in molar units.

Observe how each entry below is paired with its result.
INSERT INTO results (compound, assay_value) VALUES
  ('O=C1[C@@H](c2ccccc2)SCN1O', 5.28),
  ('O=C(O)c1cccc(=S)n1O [Compound 51, reference compound]', 7.70),
  ('O=C(O)/C(S)=C\c1cccnc1', 5.35);

Name the recorded pKi for `O=C(c1ccc(O)cc1)c1ccc(O)c(O)c1O` . 5.06

Same again, this time with Oc1cccc2cccnc12 [Compound 31, 8-Hydroxyquinoline] 6.17

====

target: NDM-1 (Klebsiella pneumoniae, UniProt C7C422); assay: biochemical; conditions: read-out: NDM-1 percentage inhibition, 50 μM compound, 5 nM MBL, 10 μM nitrocefin, 30 mins
Sequence (C7C422 whole entry, looked up, species assumed): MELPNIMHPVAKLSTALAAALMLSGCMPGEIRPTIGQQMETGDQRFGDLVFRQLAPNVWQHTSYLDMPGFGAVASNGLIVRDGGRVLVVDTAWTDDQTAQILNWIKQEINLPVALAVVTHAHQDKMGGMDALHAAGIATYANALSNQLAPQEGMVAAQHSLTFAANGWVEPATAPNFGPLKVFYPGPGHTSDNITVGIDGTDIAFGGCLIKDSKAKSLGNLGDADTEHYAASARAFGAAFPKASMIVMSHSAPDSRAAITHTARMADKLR
Rule: inhibition at 50 µM under 40% gives Not fulfilled, otherwise Fulfilled.

Solved cases below.
INSERT INTO assay_data (molecule, cat) VALUES
  ('O=C(O)c1cccc(C(=O)O)n1', 'Fulfilled'),
  ('C[C@H](CS)C(=O)N1CCC[C@H]1C(=O)O [Compound 1, L-captopril, reference compound]', 'Fulfilled'),
  ('O=C(O)c1ccc2cccnc2c1O [Compound 45, 8-hydroxyquinoline-7-carboxylic acid]', 'Fulfilled');

Evaluate Oc1cnc2ccccc2c1 [Compound 33, 3-hydroxyquinoline] : inhibition at 50 µM at minimum 40%? Not fulfilled

One more molecule: `Oc1ccnc(S)n1` Fulfilled

====

target: VIM-2 (Pseudomonas aeruginosa, UniProt Q5U7L7); experiment: biochemical; details: nitrocefin substrate, competitive-inhibition fit; read-out: VIM-2 Ki
Recorded pKi for the following molecules
Reminder that pKi is minus the log10 of a molar concentration.

INSERT INTO measurements (molecule, assay_value) VALUES
  ('Oc1ccc(Cl)c2cccnc12', 6.02),
  ('Nc1ccc(O)c2ncccc12', 6.06),
  ('Oc1c(I)cc(Cl)c2cccnc12 [Compound 48, Clioquinol, reference compound]', 5.96),
  ('Cc1ccc2c(Cl)cc(Cl)c(O)c2n1', 6.02),
  ('O=[N+]([O-])c1ccc(O)c2ncccc12', 6.60);

Any idea what pKi came out for `Oc1c(Cl)cc(Cl)c2cccnc12` on VIM-2 (Pseudomonas aeruginosa, UniProt Q5U7L7)? 5.96

Would you mind doing `O=C(O)c1cnc2c(O)cccc2c1` as well? 6.28

====

assay: in vitro; details: human, HEK293 cells
readout.type: CC50 at 72 h

For the molecule shown here, O=C(O)c1ccc2cccnc2c1O [Compound 45, 8-hydroxyquinoline-7-carboxylic acid] , give the reported CC50 at 72 h. > 100 µM

====

test system: VIM-2 expressing E. coli; format: cell-based, Escherichia coli; conditions: in the presence of 50 μM amoxicillin
readout.type: pEC50
Kindly note that pEC50 refers to -log10 of the concentration in mol/L and answer with the value alone.

INSERT INTO measurements (compound, tested_on, assay_value) VALUES
  ('O=[N+]([O-])c1ccc(O)c2ncccc12', 'VIM-2 expressing E. coli', 7.15);

Request the reported pEC50 associated with Oc1c(I)cc(Cl)c2cccnc12 [Compound 48, Clioquinol, reference compound] 6.03

====

assay: in vitro; details: human, microsomes, pH 7.4
readout.type: half-life

Requested read-out: half-life. Entry: O=C(O)c1ccc2cccnc2c1O [Compound 45, 8-hydroxyquinoline-7-carboxylic acid] > 1 h

====

test system: HEK293 cells; experiment: Human cell cytotoxicity assay (MTT); conditions: 72 h
Listed molecules paired with reported CC50
Could you give me the number in µM? Just the number is fine.

INSERT INTO assay_data (molecule, readout_type, readout_unit, assay_value) VALUES
  ('Oc1c(I)cc(Cl)c2cccnc12 [Compound 48, Clioquinol, reference compound]', 'CC50', 'µM', 18.3);

Let us move to another entry and its CC50.
For the molecule shown here, `O=[N+]([O-])c1ccc(O)c2ncccc12` , give the reported CC50. 7.8

====

molecular target: NDM-1 (Klebsiella pneumoniae); test: biochemical; details: 50 μM compound, 5 nM MBL, 10 μM nitrocefin, 30 mins; read-out: NDM-1 percentage inhibition
Known inhibition at 50 µM of a selection of compounds
Give the quantity in %, number only.

Sample records with inhibition at 50 µM:
INSERT INTO assay_data (compound, tested_on, readout_type, assay_value) VALUES
  ('O=C(O)c1c(O)cccc1O', 'NDM-1 (Klebsiella pneumoniae)', 'inhibition at 50 µM', 51),
  ('Cc1cc(C(=O)O)nc2[nH]c(=S)[nH]c(=O)c12', 'NDM-1 (Klebsiella pneumoniae)', 'inhibition at 50 µM', 50),
  ('Sc1nccc(-c2ccccn2)n1', 'NDM-1 (Klebsiella pneumoniae)', 'inhibition at 50 µM', 43),
  ('O=C1c2ccccc2C(=O)N1O', 'NDM-1 (Klebsiella pneumoniae)', 'inhibition at 50 µM', 30),
  ('O=C(c1ccc(O)cc1)c1ccc(O)c(O)c1O', 'NDM-1 (Klebsiella pneumoniae)', 'inhibition at 50 µM', 40);

Reported inhibition at 50 µM, compound `O=C(O)/C(S)=C\c1cccnc1` : ____ 40

Subsequent entry: `Cc1cc(C(=O)O)nc(O)n1` 54

Then this compound: `O=C1[C@@H](c2ccccc2)SCN1O` 40

Same lookup for `Cc1nc(S)nc(O)c1CC(=O)O` , please. 63

Try the compound `Nc1nc(S)ncc1C(=O)O` 44

// next record `O=c1c(-c2cccs2)[n+]([O-])c2ccccc2n1O` 51

Repeat with `CC(=O)c1ccc(O)c(O)c1O` 18

====

biological target: VIM-2 (Pseudomonas aeruginosa); assay: biochemical; details: read-out: VIM-2 percentage inhibition
readout.type: inhibition at 50 µM (%)
Just the number in %, nothing appended.

Solved entries (count: 3):
INSERT INTO measurements (molecule, assay_value) VALUES
  ('O=C(O)CC(S)C(=O)O (stereo not shown)', 22),
  ('Oc1ccnc(S)n1', 13),
  ('O=C(O)c1cccc(C(=O)O)n1', 15);

Please turn your attention to the following entry.
Suppose we examine the molecule `O=C(O)c1cc(O)cc(C(=O)O)n1` ; what inhibition at 50 µM value has been reported? 27

====

target: VIM-2 (Pseudomonas aeruginosa, UniProt Q5U7L7); experiment: biochemical
readout.type: pIC50
To interpret pIC50, take it as minus log10 of a concentration measured in moles per litre.

Here are 4 compounds together with their reported answers.
INSERT INTO assay_data (compound, assay_value) VALUES
  ('O=C(O)/C(S)=C\c1cccnc1 [Compound 5]', 4.62),
  ('Oc1cccc2cccnc12 [Compound 31, 8-Hydroxyquinoline]', 5.44),
  ('O=C(O)c1cccc(=S)n1O [Compound 51, reference compound]', 6.51),
  ('O=C(c1ccc(O)cc1)c1ccc(O)c(O)c1O [Compound 13]', 4.09);

Consider the record given below.
Query: pIC50; subject: O=C1[C@@H](c2ccccc2)SCN1O [Compound 17] 4.39

====

experiment: in vitro; details: human
readout.type: CC50 at 72 h (µM)
The answer is to be given in µM; state only the numeric part.

Fill in: CC50 at 72 h of O=C(O)c1cccc(=S)n1O [Compound 51, reference compound] is ___ 92

====

biological target: VIM-2 (Pseudomonas aeruginosa, UniProt Q5U7L7); assay: biochemical; conditions: 5 nM MBL, 10 μM nitrocefin; read-out: VIM-2 IC50
readout.type: pIC50
Keep in mind that pIC50 stands for -log10 of concentration in molar terms.

Example results:
INSERT INTO assay_data (molecule, assay_value) VALUES
  ('Cc1ccc2c(Cl)cc(Cl)c(O)c2n1', 5.32),
  ('Oc1c(Cl)cc(Cl)c2cccnc12', 5.39),
  ('O=C(O)c1cnc2c(O)cccc2c1', 5.80),
  ('Oc1ccc(Cl)c2cccnc12', 5.39),
  ('Nc1ccc(O)c2ncccc12', 5.42);

Reported pIC50 for VIM-2 (Pseudomonas aeruginosa, UniProt Q5U7L7), given `O=[N+]([O-])c1ccc(O)c2ncccc12` ? 6.17

Subsequent entry: Oc1c(I)cc(Cl)c2cccnc12 [Compound 48, Clioquinol, reference compound] 5.29
